Please go through the items and note down their PBM binding z-score.
Test system: PXR homodimer (NR concentration 270 nM)
assay_protocol: PBM binding z-score (relative to random genomic background probes); higher = stronger binding; sequences stand for … in GC…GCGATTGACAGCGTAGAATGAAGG

## Task Recorded PBM binding z-score for TCGAGTAGGTAACGGGGGCATTCAGGGATGAAGA , please?
## Result 1.58

## Task Which PBM binding z-score is listed for AGTCAGAGTTCATCTAGGTAACGTAAGATATGCT ?
## Result 9.2

## Task Fill in the blank: the reported PBM binding z-score of AGTCAAAGTTCACTAGGTTACGTAAGATTCAGCT is ____.
## Result 4.84

## Task Entry ATATGAAGGTTATCGGGTCATTCAGTTTGCGCAT has what PBM binding z-score?
## Result 8.15

## Task GET /values?readout=PBM binding z-score&item= CGTCAAAGTTCAACTAAGGTAACTTAAAGCACGC
## Result 4.62

## Task Request the reported PBM binding z-score associated with TTACCAAGGTGAAAGGTCGGTGATGCACGCCTTG
## Result -0.356

## Task For the sequence CGAACTAGGCCACCAGGACAGTGAAGAGGTTGGA , what PBM binding z-score is on record?
## Result -0.217

## Task Item under review: TCGAGTAGGTTTCGGGGGCATTCAGGGATGAAGA . Reported PBM binding z-score?
## Result 2.07

## Task Recorded PBM binding z-score of CCTTACGGGTAACTCCAGGTTATAGCATCGGAGT , please.
## Result 0.14

## Task Suppose we examine the sequence TCGAGTAGGTTACGGGGGCATTCAAGGATGAAGA ; what PBM binding z-score value has been reported?
## Result 1.06

## Task Please report the recorded PBM binding z-score for CAAACTAGGTCAAAGGTCAAGGTCGAGCCAACCA .
## Result 1.52

## Task What does the record list as PBM binding z-score for ATCGAAAGGTCGAGGAGGTGAGTATACACCGTTT ?
## Result 0.184

## Task Value lookup for PBM binding z-score; key = ATATGTAGGTGAGGGTCATTCAGAAAGTAGGGAA
## Result 1.81

## Task Using the record for CCTTACGGGTCGCTGACAGGTTATAGCATTTGGA , report its PBM binding z-score.
## Result -0.0348

## Task Can you look up the measured PBM binding z-score of CCGAGTAGGTTACGAGGGGGCATTCGGTGCGAAT for me?
## Result 4.05

## Task Tell me the measured PBM binding z-score of ATCGAAAGGTCGTGAGGTGACTATACAGAAAGGC , please.
## Result 0.227

## Task PBM binding z-score lookup needed for CTATGTAGGTTAAGGGGGTCTTTCAGTTTGAAAG , thanks.
## Result 1.64

## Task PBM binding z-score for CCGAGTCGGTTACGAGGGGGCATTCAGTGCGAAT ?
## Result 5.49

## Task For the sequence shown here, CCGACTGGGTCAAAGGTTACCATACTCAGTACGA , give the reported PBM binding z-score.
## Result -0.223

## Task Form field: reported PBM binding z-score of AAATGTAGGTTAAGGGTCATTCAGGTTGGTTCGC
## Result 2.61

## Task Which PBM binding z-score reading was recorded for the sequence TTACCAAGGTCAGCTGAGGTCGTTGATCCAACTC ?
## Result 3.87

## Task So what's the measured PBM binding z-score for this one? CTCGAAAGGTCGTGCTCAGGTGAGTATGCCAAAC
## Result 0.126

## Task Would you mind telling me what PBM binding z-score value was observed for TAGCCTAGGTCATAGGGCCAGTATAGTACGCATC ?
## Result -0.088

## Task Consider the sequence CCTTACGGGTCAAGGTTATACCACGGGTGGTACG and give its measured PBM binding z-score.
## Result 0.498

## Task Which PBM binding z-score reading was recorded for the sequence TCTAGTAGGTTACGGGGGCATTCAGGGATGAAGA ?
## Result 2.71

## Task Entry TTACAAAGGTGAGCTGAGGTCGTTGATCCAACTC has what PBM binding z-score?
## Result 0.268

## Task PBM binding z-score for CATACCGGGTCAGCTAGGCCAGAGTAGGGACGGC ?
## Result -0.232

## Task // lookup PBM binding z-score for TCTAGTAGGTCACGGAGGTCACACACGACGGGTA
## Result 7.52

## Task I have this sequence here, CCTGCTAGGACAATGGTCAGCTAAAGCAGCTCGC , and I need its recorded PBM binding z-score.
## Result -0.715

## Task What measured PBM binding z-score goes with TCGAGTAGGTTACGGGGGCACTCAGGGATGAAGA ?
## Result 0.594

## Task # get_value(readout='PBM binding z-score', item= AATACAGGATCACTAGGCCAGAGTAGGTACGAAT )
## Result 0.366

## Task # PBM binding z-score lookup, item CATACAGGGTCATCTAGGCCAGAGTAGGGACGGC
## Result 0.88

## Task // PBM binding z-score lookup, key: CTATGTAGGCTAAGGGGGTCATTCAGTTTGAAAG
## Result 8.71

## Task Item under review: CTATGTAGGTTATGGGGGTCATTCAGTTTGAAAG . Reported PBM binding z-score?
## Result 12.9

## Task Requested read-out: PBM binding z-score. Entry: CCGAGTAGCTTACGAGGGGGCATTCAGTGCGAAT
## Result 5.04

## Task // PBM binding z-score lookup, key: CGAACTAGGACAAAGGACAGTGAAAGGCGACGTA
## Result -0.257

## Task Entry CGAACTAGGTCACCAGGACAGTGGAGAGGTTGGA has what PBM binding z-score?
## Result -0.106

## Task Need PBM binding z-score, item TAGCCTCGGTCATTGGGCCAGTATAGTACGCATC
## Result -0.977

## Task What does the data say about its PBM binding z-score? Entry: ACTCGGGGGACAAAGGTCAGAGCTACGCCAGTGA
## Result 1.26

## Task Return reported PBM binding z-score; argument: CCTAGATGGTCAGGAGGTCACACACCGGATATGA
## Result 1.76

## Task Give the measured PBM binding z-score of CGTCCAAGGTCAAGGTGAGTGAAAGAGACTCGAA .
## Result 0.642

## Task Give the measured PBM binding z-score of AGTCAAAGTTCACGAGGTAACGTAAGATTCAGCT .
## Result 2.45

## Task Sample CGAACTAGGTCAACAGGACAGTGAAGAGGTTGGA — what was its PBM binding z-score?
## Result 0.261

## Task Returns the measured PBM binding z-score for the input sequence. Input: CTATGTAGGTTAAGGGGGTCATTTAGTTTGAAAG
## Result 10.3

## Task Quick one: PBM binding z-score for TAGCCTAGGTCATTGGGCCAGTATAGTACGCATC ?
## Result -0.104

## Task So what does the record say about PBM binding z-score for CGAACTAAGTCAAAGGACAGTGAAAGGCGACGTA ?
## Result -0.123

## Task So what does the record say about PBM binding z-score for TCTTATAGATCAATAGAGGTTAAGAAAGTGCGCT ?
## Result 0.488

## Task Would you mind telling me what PBM binding z-score value was observed for CCGAGTATGTTACGAGGGGGCATTCAGTGCGAAT ?
## Result 4.74

## Task Which measured PBM binding z-score value corresponds to CGAACTAGGTCACTAGGACAGTGAAGAGGTTGGA ?
## Result 0.00587

## Task Recorded PBM binding z-score for GATACAGGGTCAAGGCCAGAGTACGCGTATTGAT , please?
## Result 0.227

## Task What value of PBM binding z-score has been recorded for this entry: CGTCCAAGGTCATACGAGGTCAGTGAAGACAGAT
## Result 9.7
